Published IC50 for Fibroblast growth factor receptor 2 (Homo sapiens, UniProt P21802), assembled from different documents, is shown next.
Measured endpoint: IC50

compound=COC(=O)c1cc2cc(-c3n[nH]c4cc(-c5c(F)c(OC)cc(OC)c5F)ncc34)ccc2o1 value_measured="< 100 nM"
compound=COc1cc(OC)c(F)c(N2Cc3cnc(N)c(-c4ccc(F)cc4)c3N(C)C2=O)c1F value_measured="< 100 nM"
compound="N#Cc1cnc(NC(=O)N2CCCc3cc(CO)c(C=O)nc32)cc1NC1CCOC1 (racemic)" value_measured="> 10000 nM"
compound=COc1cc(OC)c(F)c(N2Cc3cnc(NC[C@H](C)O)cc3C3(CC3)C2=O)c1F value_measured="< 100 nM"
